Test system: THP1-Dual KO-TREX1 cells
Assay: THP1 TREX1 KO inhibition assay (type 1 interferon response)
Assay type: cell-based
Conditions: Homo sapiens, 144 h, type 1 interferon (QUANTI-LUC), 1 μM 5-aza-2′-deoxycytidine, six days
pIC50: −log10 of the molar value.
Measured pIC50 by item

# lookup: pIC50 of `C#C[C@]1(CO)O[C@@H](c2ccc3c(N)ncnn23)C[C@@H]1O`
< 6.00

# pIC50 lookup, item `Nc1nc(=O)n([C@H]2C[C@H](O)[C@](CO)(CCl)O2)cc1F`
6.60 to 7.00

For the compound shown here, CCCC1(CO)O[C@@H](n2ccc(N)nc2=O)C[C@@H]1O (stereo partly drawn) , give the reported pIC50.
< 6.00

Endpoint output: pIC50 of `[N-]=[N+]=N[C@]1(CO)O[C@@H](n2cc(F)c(N)nc2=O)[C@@H](F)[C@@H]1O` . Value?
6.00 to 6.60

Can you share its pIC50? I mean this compound: `C#C[C@]1(CO)O[C@@H](n2cnc3c(N)nc(Cl)nc32)C[C@@H]1O`
< 6.00

Recorded pIC50 for `CC[C@]1(CO)O[C@@H](n2cnc3c(=O)[nH]c(N)nc32)C[C@@H]1O` , please?
< 6.00

Which pIC50 reading was recorded for the compound `C=C=C[C@]1(CO)O[C@@H](n2cnc3c(N)nc(F)nc32)C[C@@H]1O` ?
< 6.00

Any idea what pIC50 was measured for `Cc1cn([C@@H]2O[C@@](CO)(CCl)[C@@H](O)[C@@H]2F)c(=O)[nH]c1=O` ?
< 6.00

Given the entry C=CCC1(CO)O[C@@H](n2ccc(N)nc2=O)C[C@@H]1O (stereo partly drawn) , report its measured pIC50.
< 6.00

// returns reported pIC50 for input `Nc1nc(=O)n([C@H]2C[C@H](O)[C@](CO)(C(F)F)O2)cc1F`
6.00 to 6.60

Can you share its pIC50? I mean this compound: `C[C@@H]1[C@H](n2ccc(N)nc2=O)O[C@@](CO)(CCl)[C@H]1O`
< 6.00

Entry under review: `Nc1ccn([C@@H]2O[C@@](CO)(CBr)[C@@H](O)[C@@H]2F)c(=O)n1` . Reported pIC50?
< 6.00

Fill in: pIC50 of `C=C[C@]1(CO)O[C@@H](n2ccc(N)nc2=O)C[C@@H]1O` is ___
< 6.00

Recorded pIC50 of `Cc1cn([C@@H]2O[C@@](CO)(N=[N+]=[N-])[C@@H](O)[C@@H]2F)c(=O)[nH]c1=O` , please.
< 6.00

I would be grateful if you could share the reported pIC50 for `C#C[C@]1(CO)O[C@@H](n2cc(C)c(=O)[nH]c2=O)C[C@@H]1O` .
< 6.00
